molecular target: human kappa opioid receptors (Homo sapiens); construct: HA; expressed in transfected cells; host or cells: Chinese hamster ovary (CHO) cells, virally transfected; test: In-cell western ERK1/2 phosphorylation, inhibition of U69,593 induced ERK phosphorylation; format: cell-based; conditions: hKOR-CHO cells, 100 nM U69,593, n ≥ 3; read-out: IC50 (nM) ± S.E.M. ERK
Sequence (P41145 whole entry): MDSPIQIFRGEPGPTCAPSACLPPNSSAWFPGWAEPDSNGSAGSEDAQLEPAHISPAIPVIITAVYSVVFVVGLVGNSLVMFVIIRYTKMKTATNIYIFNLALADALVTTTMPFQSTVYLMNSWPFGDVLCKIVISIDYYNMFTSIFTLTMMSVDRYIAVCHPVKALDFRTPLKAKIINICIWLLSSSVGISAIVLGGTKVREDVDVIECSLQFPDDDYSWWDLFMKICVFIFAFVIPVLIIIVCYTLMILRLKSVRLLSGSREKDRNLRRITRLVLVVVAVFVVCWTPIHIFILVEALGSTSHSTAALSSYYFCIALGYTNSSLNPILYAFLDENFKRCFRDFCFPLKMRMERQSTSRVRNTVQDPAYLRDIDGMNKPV
value kind: IC50 (nM)
The figure you give is taken to be in nM; do not add the unit.

stdin: Can you share its IC50? I mean this molecule: Cc1ccc(S(=O)(=O)N2CCc3cc(C(=O)NCCN(Cc4ccc(Br)cc4)C(C)(C)C)ccc3C2)cc1 [Compound 1m]
stdout: 87

stdin: Query (molecule): Cc1cc(C)c(S(=O)(=O)N2CCc3cc(C(=O)NCCN(Cc4ccccc4)C(C)C)ccc3C2)c(C)c1 [Compound 1c] ; field requested: IC50
stdout: 1120

stdin: Using the record for Cc1ccc(S(=O)(=O)N2CCc3cc(C(=O)NCCN(Cc4ccccc4)C(C)(C)C)ccc3C2)cc1 [Compound 1h] , report its IC50.
stdout: 49.1

stdin: What value of IC50 has been recorded for this entry: Cc1cc(C)c(S(=O)(=O)N2CCc3cc(C(=O)NCCN(Cc4ccc(Br)cc4)C(C)(C)C)ccc3C2)c(C)c1 [Compound 1n]
stdout: 1340

stdin: Bench note: what IC50 did CCc1ccc(S(=O)(=O)N2CCc3cc(C(=O)NCCN(Cc4ccc(Br)cc4)C(C)C)ccc3C2)cc1 [Compound 1g] show?
stdout: 314
